Listed next: entries and their corresponding relative viability.
System: NCI-H1703
procedure.summary: relative viability (nuclei count vs DMSO), 5 days (fraction); higher = more cells survive
test.conditions: first compound 5 µM

| compound | readout | experimental.value |
| --- | --- | --- |
| O=C(O)CCCCC(CCSCc1ccccc1)SCc1ccccc1 (stereo unspecified) [CPI-613] + CC(C)C[C@H](NC(=O)[C@H](Cc1ccccc1)NC(=O)c1cnccn1)B(O)O [Bortezomib] (partner 0.002 µM) | relative viability | 0.29 |

Value of measured relative viability for the entry O=C(O)CCCCC(CCSCc1ccccc1)SCc1ccccc1 (stereo unspecified) [CPI-613] + CC1(C)CCC(c2ccc(Cl)cc2)=C(CN2CCN(c3ccc(C(=O)NS(=O)(=O)c4ccc(N[C@H](CCN5CCOCC5)CSc5ccccc5)c(S(=O)(=O)C(F)(F)F)c4)cc3)CC2)C1 [Navitoclax] (partner 0.5 µM) : 1.01

The value of relative viability measured for the compound O=C(O)CCCCC(CCSCc1ccccc1)SCc1ccccc1 (stereo unspecified) [CPI-613] + Cc1nc(NC(=O)N2CCC[C@H]2C(N)=O)sc1-c1ccnc(C(C)(C)C(F)(F)F)c1 [Alpelisib] (partner 2 µM) turned out to be 0.381

====

Tested on: HCC-15
procedure.summary: relative viability (nuclei count vs DMSO), 5 days (fraction); higher = more cells survive
test.conditions: first compound 2.53 µM
readout: relative viability

| compound | relative viability |
| --- | --- |
| Cc1cnc(-c2cnc(NCCNc3ccc(C#N)cn3)nc2-c2ccc(Cl)cc2Cl)[nH]1 + CS(=O)(=O)CCNCc1ccc(-c2ccc3ncnc(Nc4ccc(OCc5cccc(F)c5)c(Cl)c4)c3c2)o1 [Lapatinib] (partner 2 µM) | 0.843 |
| O=c1[nH]c2ccccc2n1C1CCN(CCCC(c2ccc(F)cc2)c2ccc(F)cc2)CC1 [Pimozide] + CC(C)C[C@H](NC(=O)[C@H](Cc1ccccc1)NC(=O)c1cnccn1)B(O)O [Bortezomib] (partner 0.002 µM) | 0.963 |
| O=c1[nH]c2ccccc2n1C1CCN(CCCC(c2ccc(F)cc2)c2ccc(F)cc2)CC1 [Pimozide] + O=C(c1cc(Cc2n[nH]c(=O)c3ccccc23)ccc1F)N1CCN(C(=O)C2CC2)CC1 [Olaparib] (partner 8 µM) | 0.712 |

Short answer for Cc1cnc(-c2cnc(NCCNc3ccc(C#N)cn3)nc2-c2ccc(Cl)cc2Cl)[nH]1 + N=C(N)NC(=N)NCCc1ccccc1 [Phenformin] (partner 250 µM) : relative viability was 0.412

The reported relative viability of the compound Cc1cnc(-c2cnc(NCCNc3ccc(C#N)cn3)nc2-c2ccc(Cl)cc2Cl)[nH]1 + O=C(CCCCCCC(=O)Nc1ccccc1)NO [Vorinostat] (partner 1 µM) was 0.829

====

Test system: HCC-366
procedure.summary: relative viability (nuclei count vs DMSO), 5 days (fraction); higher = more cells survive
test.conditions: first compound 0.006325 µM
readout: relative viability

Worked set:
| molecule | measured.target | readout | experimental.value |
| --- | --- | --- | --- |
| CC(=O)O[C@@]12CO[C@@H]1C[C@H](O)[C@@]1(C)C(=O)[C@H](O)C3=C(C)[C@@H](OC(=O)[C@H](O)[C@@H](NC(=O)OC(C)(C)C)c4ccccc4)C[C@@](O)([C@@H](OC(=O)c4ccccc4)[C@H]21)C3(C)C [Docetaxel] + C[C@]1(O)C[C@@H](c2nc(-c3ccc4ccc(-c5ccccc5)nc4c3)c3c(N)nccn32)C1 [Linsitinib] (partner 1 µM) | HCC-366 | relative viability | 0.012 |
| CC(=O)O[C@@]12CO[C@@H]1C[C@H](O)[C@@]1(C)C(=O)[C@H](O)C3=C(C)[C@@H](OC(=O)[C@H](O)[C@@H](NC(=O)OC(C)(C)C)c4ccccc4)C[C@@](O)([C@@H](OC(=O)c4ccccc4)[C@H]21)C3(C)C [Docetaxel] + CS(=O)(=O)N1CCN(Cc2cc3nc(-c4cccc5[nH]ncc45)nc(N4CCOCC4)c3s2)CC1 [Pictilisib] (partner 1 µM) | HCC-366 | relative viability | 0.0362 |
| CC(=O)O[C@@]12CO[C@@H]1C[C@H](O)[C@@]1(C)C(=O)[C@H](O)C3=C(C)[C@@H](OC(=O)[C@H](O)[C@@H](NC(=O)OC(C)(C)C)c4ccccc4)C[C@@](O)([C@@H](OC(=O)c4ccccc4)[C@H]21)C3(C)C [Docetaxel] + CC(C)C[C@H](NC(=O)[C@H](Cc1ccccc1)NC(=O)c1cnccn1)B(O)O [Bortezomib] (partner 0.002 µM) | HCC-366 | relative viability | 0.0171 |
| CC(=O)O[C@@]12CO[C@@H]1C[C@H](O)[C@@]1(C)C(=O)[C@H](O)C3=C(C)[C@@H](OC(=O)[C@H](O)[C@@H](NC(=O)OC(C)(C)C)c4ccccc4)C[C@@](O)([C@@H](OC(=O)c4ccccc4)[C@H]21)C3(C)C [Docetaxel] + CS(=O)(=O)CCNCc1ccc(-c2ccc3ncnc(Nc4ccc(OCc5cccc(F)c5)c(Cl)c4)c3c2)o1 [Lapatinib] (partner 2 µM) | HCC-366 | relative viability | 0.0194 |
| CC(=O)O[C@@]12CO[C@@H]1C[C@H](O)[C@@]1(C)C(=O)[C@H](O)C3=C(C)[C@@H](OC(=O)[C@H](O)[C@@H](NC(=O)OC(C)(C)C)c4ccccc4)C[C@@](O)([C@@H](OC(=O)c4ccccc4)[C@H]21)C3(C)C [Docetaxel] + Cc1nc(NC(=O)N2CCC[C@H]2C(N)=O)sc1-c1ccnc(C(C)(C)C(F)(F)F)c1 [Alpelisib] (partner 2 µM) | HCC-366 | relative viability | 0.0149 |

Continue with the next molecule.
relative viability in this record for CC(=O)O[C@@]12CO[C@@H]1C[C@H](O)[C@@]1(C)C(=O)[C@H](O)C3=C(C)[C@@H](OC(=O)[C@H](O)[C@@H](NC(=O)OC(C)(C)C)c4ccccc4)C[C@@](O)([C@@H](OC(=O)c4ccccc4)[C@H]21)C3(C)C [Docetaxel] + Cc1cc(Nc2cc(N3CCN(C)CC3)nc(Sc3ccc(NC(=O)C4CC4)cc3)n2)n[nH]1 [Tozasertib] (partner 0.1 µM) : 0.0475

====

# relative viability values compiled below
Tested on: RERF-LC-KJ
procedure.summary: relative viability (nuclei count vs DMSO), 5 days (fraction); higher = more cells survive
test.conditions: first compound 0.8 µM
Please give only the number in your answer, with no unit.

| compound | relative viability |
| --- | --- |
| O=c1[nH]c2ccccc2n1C1CCN(CCCC(c2ccc(F)cc2)c2ccc(F)cc2)CC1 [Pimozide] + Cc1nc(NC(=O)N2CCC[C@H]2C(N)=O)sc1-c1ccnc(C(C)(C)C(F)(F)F)c1 [Alpelisib] (partner 2 µM) | 0.807 |

Alright, here's another compound for you.
The compound listed as O=c1[nH]c2ccccc2n1C1CCN(CCCC(c2ccc(F)cc2)c2ccc(F)cc2)CC1 [Pimozide] + Cc1cc(Nc2cc(N3CCN(C)CC3)nc(Sc3ccc(NC(=O)C4CC4)cc3)n2)n[nH]1 [Tozasertib] (partner 0.1 µM) shows relative viability equal to 0.452

====

System: LOU-NH91
procedure.summary: relative viability (nuclei count vs DMSO), 5 days (fraction); higher = more cells survive
test.conditions: first compound 0.1265 µM
readout: relative viability
// print number alone

| compound | measured.target | readout | experimental.value |
| --- | --- | --- | --- |
| Cc1sc2c(c1C)C(c1ccc(Cl)cc1)=N[C@@H](CC(=O)OC(C)(C)C)c1nnc(C)n1-2 [JQ1] + Nc1nc2[nH]cc(CCc3ccc(C(=O)N[C@@H](CCC(=O)O)C(=O)O)cc3)c2c(=O)[nH]1 [Pemetrexed] (partner 0.2 µM) | LOU-NH91 | relative viability | 0.387 |
| Cc1sc2c(c1C)C(c1ccc(Cl)cc1)=N[C@@H](CC(=O)OC(C)(C)C)c1nnc(C)n1-2 [JQ1] + COc1cccc2cc(-c3nc([C@H]4CC[C@H](C(=O)O)CC4)n4ncnc(N)c34)[nH]c12 [OSI-027] (partner 0.5 µM) | LOU-NH91 | relative viability | 0.674 |
| Cc1sc2c(c1C)C(c1ccc(Cl)cc1)=N[C@@H](CC(=O)OC(C)(C)C)c1nnc(C)n1-2 [JQ1] + Cc1cc(Nc2cc(N3CCN(C)CC3)nc(Sc3ccc(NC(=O)C4CC4)cc3)n2)n[nH]1 [Tozasertib] (partner 0.1 µM) | LOU-NH91 | relative viability | 0.453 |
| Cc1sc2c(c1C)C(c1ccc(Cl)cc1)=N[C@@H](CC(=O)OC(C)(C)C)c1nnc(C)n1-2 [JQ1] + Cc1nc(Nc2ncc(C(=O)Nc3c(C)cccc3Cl)s2)cc(N2CCN(CCO)CC2)n1 [Dasatinib] (partner 0.075 µM) | LOU-NH91 | relative viability | 0.463 |
| Cc1sc2c(c1C)C(c1ccc(Cl)cc1)=N[C@@H](CC(=O)OC(C)(C)C)c1nnc(C)n1-2 [JQ1] + CS(=O)(=O)CCNCc1ccc(-c2ccc3ncnc(Nc4ccc(OCc5cccc(F)c5)c(Cl)c4)c3c2)o1 [Lapatinib] (partner 2 µM) | LOU-NH91 | relative viability | 0.679 |

For the next question, use this compound.
Entry Cc1sc2c(c1C)C(c1ccc(Cl)cc1)=N[C@@H](CC(=O)OC(C)(C)C)c1nnc(C)n1-2 [JQ1] + CC1(C)CCC(c2ccc(Cl)cc2)=C(CN2CCN(c3ccc(C(=O)NS(=O)(=O)c4ccc(N[C@H](CCN5CCOCC5)CSc5ccccc5)c(S(=O)(=O)C(F)(F)F)c4)cc3)CC2)C1 [Navitoclax] (partner 0.5 µM) , relative viability reported as 0.606
